Biological target: UniProt:P11712
Sequence (P11712 whole entry): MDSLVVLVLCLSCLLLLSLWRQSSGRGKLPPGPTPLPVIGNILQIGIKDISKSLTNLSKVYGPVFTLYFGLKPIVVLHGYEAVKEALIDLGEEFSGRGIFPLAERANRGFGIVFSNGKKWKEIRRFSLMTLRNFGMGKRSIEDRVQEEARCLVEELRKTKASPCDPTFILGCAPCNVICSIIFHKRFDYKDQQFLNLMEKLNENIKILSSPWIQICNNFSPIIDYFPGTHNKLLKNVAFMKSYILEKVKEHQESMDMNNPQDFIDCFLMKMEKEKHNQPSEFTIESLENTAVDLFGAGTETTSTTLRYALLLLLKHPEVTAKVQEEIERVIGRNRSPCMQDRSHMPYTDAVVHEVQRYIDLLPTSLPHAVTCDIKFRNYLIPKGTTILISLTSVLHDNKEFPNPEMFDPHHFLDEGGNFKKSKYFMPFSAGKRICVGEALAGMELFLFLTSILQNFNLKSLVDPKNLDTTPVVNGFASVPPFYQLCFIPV
Assay: CYP enzyme inhibition, fluorescent substrate (MFC)
metric: IC50

- compound: "Cc1c(Cl)cnc2[nH]cc(C(=O)c3c(F)ccc(NS(=O)(=O)c4ccc(C(F)(F)F)cc4)c3F)c12 [P-2011]"
  metric: "IC50"
  result: "> 10 µM"
- compound: "N#Cc1c(Cl)cnc2[nH]cc(C(=O)c3c(F)ccc(NS(=O)(=O)c4ccc(C(F)(F)F)cc4)c3F)c12 [P-2010]"
  metric: "IC50"
  result: "5 to 10 µM"
- compound: "CC(C)COc1ncnc2[nH]cc(C(=O)c3c(F)ccc(NS(=O)(=O)c4ccc(C(F)(F)F)cc4)c3F)c12 [P-1028]"
  metric: "IC50"
  result: "5 to 10 µM"
- compound: "CCn1cc(Nc2ncnc3[nH]cc(C(=O)c4c(F)ccc(NS(=O)(=O)c5ccc(C(F)(F)F)cc5)c4F)c23)cn1 [P-1063]"
  metric: "IC50"
  result: "5 to 10 µM"
- compound: "Cc1cc(C)cc(S(=O)(=O)Nc2ccc(F)c(C(=O)c3c[nH]c4ncnc(NC(C)C)c34)c2F)c1 [P-1045]"
  metric: "IC50"
  result: "5 to 10 µM"
- compound: "CC(C)c1ncnc2[nH]cc(C(=O)c3c(F)ccc(NS(=O)(=O)c4ccc(C(F)(F)F)cc4)c3F)c12 [P-1029]"
  metric: "IC50"
  result: "5 to 10 µM"
- compound: "O=C(c1c(F)ccc(NS(=O)(=O)c2ccc(C(F)(F)F)cc2)c1F)c1c[nH]c2ncnc(NC3CCOC3)c12 (stereo not shown) [P-1054]"
  metric: "IC50"
  result: "5 to 10 µM"

###

Molecular target: B-Raf V600E (Homo sapiens (Human), UniProt P15056, V600E)
Sequence (P15056 whole entry V600E): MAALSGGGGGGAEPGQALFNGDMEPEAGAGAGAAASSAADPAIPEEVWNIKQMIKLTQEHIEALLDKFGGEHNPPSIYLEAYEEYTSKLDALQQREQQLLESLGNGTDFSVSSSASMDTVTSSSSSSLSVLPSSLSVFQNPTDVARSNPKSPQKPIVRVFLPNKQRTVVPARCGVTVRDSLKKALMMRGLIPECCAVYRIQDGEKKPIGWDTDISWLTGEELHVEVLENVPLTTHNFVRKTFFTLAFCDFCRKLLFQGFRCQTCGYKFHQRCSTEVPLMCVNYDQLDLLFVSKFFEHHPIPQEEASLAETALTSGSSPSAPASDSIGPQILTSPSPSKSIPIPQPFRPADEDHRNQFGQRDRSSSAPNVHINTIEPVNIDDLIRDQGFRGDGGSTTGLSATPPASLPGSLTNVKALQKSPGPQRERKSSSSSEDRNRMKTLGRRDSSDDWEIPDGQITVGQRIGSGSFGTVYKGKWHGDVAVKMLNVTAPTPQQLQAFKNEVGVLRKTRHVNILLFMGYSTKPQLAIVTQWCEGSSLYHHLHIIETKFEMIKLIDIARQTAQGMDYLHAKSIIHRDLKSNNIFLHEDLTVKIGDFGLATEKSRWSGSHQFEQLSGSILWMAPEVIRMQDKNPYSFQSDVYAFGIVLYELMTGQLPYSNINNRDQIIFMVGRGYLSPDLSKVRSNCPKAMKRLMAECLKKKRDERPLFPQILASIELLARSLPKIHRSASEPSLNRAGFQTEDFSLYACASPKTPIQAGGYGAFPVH
Experiment: B-Raf V600E kinase activity biochemical assay (AlphaScreen, biotin-MEK1 phosphorylation)
Details: ratio of IC50 B-Raf V600E / c-Raf-1
Listing: Biochemical activity ratio V600E/C of selected compounds

- smiles.code: "O=C(c1c(F)ccc(NS(=O)(=O)c2ccc(C(F)(F)F)cc2)c1F)c1c[nH]c2ncnc(NC3CCCC3)c12"
  Biochemical activity ratio V600E/C: ">10"
- smiles.code: "Cc1ncnc2[nH]cc(C(=O)c3c(F)ccc(NS(=O)(=O)c4ccc(C(C)C)cc4)c3F)c12"
  Biochemical activity ratio V600E/C: ">10"
- smiles.code: "N#Cc1ncnc2[nH]cc(C(=O)c3c(F)ccc(NS(=O)(=O)c4ccc(C(F)(F)F)cc4)c3F)c12"
  Biochemical activity ratio V600E/C: ">10"
- smiles.code: "CCCc1ccc(S(=O)(=O)Nc2ccc(F)c(C(=O)c3c[nH]c4ncnc(OC)c34)c2F)cc1"
  Biochemical activity ratio V600E/C: ">10"

###

Target: B-Raf V600E (Homo sapiens (Human), UniProt P15056, V600E)
Assay: B-Raf V600E kinase activity biochemical assay (AlphaScreen, biotin-MEK1 phosphorylation)
Conditions: B-Raf V600E

- compound: "CN1CCC(Nc2ncnc3[nH]cc(C(=O)c4c(F)ccc(NS(=O)(=O)c5ccc(C(F)(F)F)cc5)c4F)c23)CC1"
  IC50: "> 0.1 µM"
- compound: "CC(C)Nc1ncnc2[nH]cc(C(=O)c3c(F)ccc(NS(=O)(=O)c4ccc(C(F)(F)F)cc4)c3F)c12"
  IC50: "< 0.1 µM"
- compound: "CCCc1ccc(S(=O)(=O)Nc2ccc(F)c(C(=O)c3c[nH]c4ncnc(Cl)c34)c2F)cc1"
  IC50: "> 0.1 µM"
- compound: "CC(C)Cc1ncnc2[nH]cc(C(=O)c3c(F)ccc(NS(=O)(=O)c4ccc(C(F)(F)F)cc4)c3F)c12"
  IC50: "> 0.1 µM"
- compound: "CCn1cc(Nc2ncnc3[nH]cc(C(=O)c4c(F)ccc(NS(=O)(=O)c5ccc(C(F)(F)F)cc5)c4F)c23)cn1"
  IC50: "> 0.1 µM"
- compound: "O=C(c1c(F)ccc(NS(=O)(=O)c2ccc(C(F)(F)F)cc2)c1F)c1c[nH]c2ncnc(Nc3ccccc3)c12"
  IC50: "> 0.1 µM"
- compound: "CCCc1ccc(S(=O)(=O)Nc2ccc(F)c(C(=O)c3c[nH]c4ncnc(NC5CC5)c34)c2F)cc1"
  IC50: "> 0.1 µM"
- compound: "CCCS(=O)(=O)Nc1ccc(F)c(C(=O)c2c[nH]c3ncc(C)c(Cl)c23)c1F"
  IC50: "< 0.1 µM"
- compound: "COc1ncnc2[nH]cc(C(=O)c3c(F)ccc(NS(=O)(=O)c4ccc(C(C)C)cc4)c3F)c12"
  IC50: "> 0.1 µM"
- compound: "CN(C)CCNc1ncnc2[nH]cc(C(=O)c3c(F)ccc(NS(=O)(=O)c4ccc(C(F)(F)F)cc4)c3F)c12"
  IC50: "> 0.1 µM"
- compound: "CC(C)COc1ncnc2[nH]cc(C(=O)c3c(F)ccc(NS(=O)(=O)c4ccc(C(F)(F)F)cc4)c3F)c12"
  IC50: "> 0.1 µM"
- compound: "CCCS(=O)(=O)Nc1ccc(F)c(C(=O)c2c[nH]c3ncnc(O)c23)c1F"
  IC50: "> 0.1 µM"
- compound: "O=C(c1c(F)ccc(NS(=O)(=O)c2ccc(C(F)(F)F)cc2)c1F)c1c[nH]c2ncnc(NC3CC3)c12"
  IC50: "> 0.1 µM"
- compound: "O=C(c1c(F)ccc(NS(=O)(=O)c2ccc(C(F)(F)F)cc2)c1F)c1c[nH]c2ncnc(NC3CCOCC3)c12"
  IC50: "> 0.1 µM"
- compound: "CCCS(=O)(=O)Nc1ccc(F)c(C(=O)c2c[nH]c3ncc(F)c(C#N)c23)c1F"
  IC50: "< 0.1 µM"
- compound: "CCCc1ccc(S(=O)(=O)Nc2ccc(F)c(C(=O)c3c[nH]c4ncnc(NC(C)C)c34)c2F)cc1"
  IC50: "> 0.1 µM"
- compound: "N#Cc1c(F)cnc2[nH]cc(C(=O)c3c(F)ccc(NS(=O)(=O)c4ccc(C(F)(F)F)cc4)c3F)c12"
  IC50: "> 0.1 µM"
- compound: "CCCS(=O)(=O)Nc1ccc(F)c(C(=O)c2c[nH]c3ncc(Cl)c(C#N)c23)c1F"
  IC50: "< 0.1 µM"
- compound: "CCOc1ncnc2[nH]cc(C(=O)c3c(F)ccc(NS(=O)(=O)c4ccc(C(F)(F)F)cc4)c3F)c12"
  IC50: "> 0.1 µM"
- compound: "CCc1ccc(S(=O)(=O)Nc2ccc(F)c(C(=O)c3c[nH]c4ncnc(OC)c34)c2F)cc1"
  IC50: "> 0.1 µM"
- compound: "O=C(c1c(F)ccc(NS(=O)(=O)c2ccc(C(F)(F)F)cc2)c1F)c1c[nH]c2ncnc(O)c12"
  IC50: "> 0.1 µM"
- compound: "CCNc1ncnc2[nH]cc(C(=O)c3c(F)ccc(NS(=O)(=O)c4ccc(C(F)(F)F)cc4)c3F)c12"
  IC50: "> 0.1 µM"
- compound: "O=C(c1c(F)ccc(NS(=O)(=O)c2ccc(C(F)(F)F)cc2)c1F)c1c[nH]c2ncnc(N3CCOCC3)c12"
  IC50: "> 0.1 µM"
- compound: "COc1ccc(S(=O)(=O)Nc2ccc(F)c(C(=O)c3c[nH]c4ncnc(C)c34)c2F)cc1F"
  IC50: "< 0.1 µM"
- compound: "Cc1ncnc2[nH]cc(C(=O)c3c(F)ccc(NS(=O)(=O)c4ccc(C(F)(F)F)cc4)c3F)c12"
  IC50: "> 0.1 µM"
- compound: "O=C(c1c(F)ccc(NS(=O)(=O)c2ccc(C(F)(F)F)cc2)c1F)c1c[nH]c2ncnc(OC3CCOCC3)c12"
  IC50: "> 0.1 µM"
- compound: "O=C(c1c(F)ccc(NS(=O)(=O)c2ccc(C(F)(F)F)cc2)c1F)c1c[nH]c2ncnc(NC3CCOC3)c12 (stereo not drawn)"
  IC50: "< 0.1 µM"
- compound: "O=C(c1c(F)ccc(NS(=O)(=O)c2ccc(C(F)(F)F)cc2)c1F)c1c[nH]c2ncnc(NC3CCCC3)c12"
  IC50: "< 0.1 µM"
- compound: "CCCc1ccc(S(=O)(=O)Nc2ccc(F)c(C(=O)c3c[nH]c4ncnc(NC5COC5)c34)c2F)cc1"
  IC50: "> 0.1 µM"
- compound: "CCCS(=O)(=O)Nc1ccc(F)c(C(=O)c2c[nH]c3ncnc(OCC)c23)c1F"
  IC50: "< 0.1 µM"

###

Target: CYP3A4(BQ) (Homo sapiens (Human))
Sequence (P08684 whole entry): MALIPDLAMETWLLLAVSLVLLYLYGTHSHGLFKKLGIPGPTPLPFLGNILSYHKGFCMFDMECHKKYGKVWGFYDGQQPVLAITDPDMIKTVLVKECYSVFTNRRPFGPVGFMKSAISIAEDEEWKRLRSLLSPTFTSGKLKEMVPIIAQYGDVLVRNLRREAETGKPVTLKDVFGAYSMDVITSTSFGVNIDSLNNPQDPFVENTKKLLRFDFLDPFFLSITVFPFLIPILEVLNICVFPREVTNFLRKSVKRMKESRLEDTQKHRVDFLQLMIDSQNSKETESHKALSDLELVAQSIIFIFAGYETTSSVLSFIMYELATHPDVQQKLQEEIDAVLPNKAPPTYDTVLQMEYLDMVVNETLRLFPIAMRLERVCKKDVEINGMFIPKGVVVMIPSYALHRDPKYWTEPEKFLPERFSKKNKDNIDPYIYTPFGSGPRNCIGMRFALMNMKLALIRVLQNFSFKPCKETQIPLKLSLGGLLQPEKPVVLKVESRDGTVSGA
Test: CYP enzyme inhibition, fluorescent substrate BQ
Details: read-out: Cyp IC50 3A4(BQ); CYP3A4, substrate BQ
Listing: IC50 of selected molecules

- smiles.code: "CCOc1ncnc2[nH]cc(C(=O)c3c(F)ccc(NS(=O)(=O)c4ccc(C(F)(F)F)cc4)c3F)c12"
  IC50: "> 10 µM"
- smiles.code: "CCn1cc(Nc2ncnc3[nH]cc(C(=O)c4c(F)ccc(NS(=O)(=O)c5cc(F)ccc5F)c4F)c23)cn1"
  IC50: "> 10 µM"
- smiles.code: "Cc1ncnc2[nH]cc(C(=O)c3c(F)ccc(NS(=O)(=O)c4ccc(C(C)C)cc4)c3F)c12"
  IC50: "> 10 µM"
- smiles.code: "CCn1cc(Nc2ncnc3[nH]cc(C(=O)c4c(F)ccc(NS(=O)(=O)c5ccc(C(F)(F)F)cc5)c4F)c23)cn1"
  IC50: "< 5 µM"
